Recorded values, source patent US20200115416A1.

measured.target: mouse melanocortin-4 receptor (mouse, UniProt P56450 1-332)
Sequence (P56450 whole entry): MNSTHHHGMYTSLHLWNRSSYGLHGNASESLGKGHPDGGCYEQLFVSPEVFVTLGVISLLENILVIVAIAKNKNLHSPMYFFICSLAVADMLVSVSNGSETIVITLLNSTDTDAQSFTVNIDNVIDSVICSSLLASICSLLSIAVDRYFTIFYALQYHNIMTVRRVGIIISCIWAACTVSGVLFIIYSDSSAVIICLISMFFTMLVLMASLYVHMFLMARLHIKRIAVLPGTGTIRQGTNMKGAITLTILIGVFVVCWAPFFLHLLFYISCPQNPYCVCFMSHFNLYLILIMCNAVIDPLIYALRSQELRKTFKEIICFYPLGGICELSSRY
method.notes: cell-based or functional assay
Square brackets hold non-standard residues; d marks the D form. Nle = CCCC[C@H](N)C(=O)O
Below is a list of entries, each paired with its recorded antagonist pA2 (Schild, agonist NDP-MSH) value.
observation.type: antagonist pA2 (Schild, agonist NDP-MSH)

INSERT INTO assay_data (binder, quantitative_readout) VALUES
  ('cyclo(PRFFNSF[dP]) (SMILES N=C(N)NCCC[C@@H]1NC(=O)[C@@H]2CCCN2C(=O)[C@H]2CCCN2C(=O)[C@H](Cc2ccccc2)NC(=O)[C@H](CO)NC(=O)[C@H](CC(N)=O)NC(=O)[C@H](Cc2ccccc2)NC(=O)[C@H](Cc2ccccc2)NC1=O) [c[Pro-Arg-Phe-Phe-Asn-Ser-Phe-DPro]]', 8.2),
  ('cyclo(PRFFFAF[dP]) (SMILES C[C@@H]1NC(=O)[C@H](Cc2ccccc2)NC(=O)[C@H](Cc2ccccc2)NC(=O)[C@H](Cc2ccccc2)NC(=O)[C@H](CCCNC(=N)N)NC(=O)[C@@H]2CCCN2C(=O)[C@H]2CCCN2C(=O)[C@H](Cc2ccccc2)NC1=O) [c[Pro-Arg-Phe-Phe-Phe-Ala-Phe-DPro]]', 6.63),
  ('cyclo(PRFFNKF[dP]) (SMILES N=C(N)NCCC[C@@H]1NC(=O)[C@@H]2CCCN2C(=O)[C@H]2CCCN2C(=O)[C@H](Cc2ccccc2)NC(=O)[C@H](CCCCN)NC(=O)[C@H](CC(N)=O)NC(=O)[C@H](Cc2ccccc2)NC(=O)[C@H](Cc2ccccc2)NC1=O) [c[Pro-Arg-Phe-Phe-Asn-Lys-Phe-DPro]]', 6.11),
  ('cyclo(PRFF[Nle]AF[dP]) [c[Pro-Arg-Phe-Phe-Nle-Ala-Phe-DPro]]', 6.9);
